Source listed as ChEMBL document CHEMBL3885861.

- Species: Rattus norvegicus
- measurement notes: Open TG-GATES - Regimen: Daily Repeat
- Assay type: toxicity, organism-based, Sprague-Dawley
- Parameters: regimen Daily Repeat, gender Male, age 6 weeks
- test settings: in vivo, po, 100 mg/kg, […], tissue Plasma, route gavage, dose level Low, time 28 day
readout name: GLC (mg/dL)
Field format: number, assumed mg/dL, no unit text.

Please report the recorded GLC for "CNC(=C[N+](=O)[O-])NCCSCc1ccc(CN(C)C)o1" .
220.2

Please report the recorded GLC for "CN/C(=N/CCSCc1nc[nH]c1C)NC#N" .
264.2

Please report the recorded GLC for "Cc1nnc2n1-c1ccc(Cl)cc1C(c1ccccc1Cl)=NC2" .
178.8

Please report the recorded GLC for "CCOc1ccc(NC(C)=O)cc1" .
191.8

Please report the recorded GLC for "O=C(OC[C@H]1O[C@@H](OC(=O)c2cc(O)c(O)c(OC(=O)c3cc(O)c(O)c(O)c3)c2)[C@H](OC(=O)c2cc(O)c(O)c(OC(=O)c3cc(O)c(O)c(O)c3)c2)[C@@H](OC(=O)c2cc(O)c(O)c(OC(=O)c3cc(O)c(O)c(O)c3)c2)[C@@H]1OC(=O)c1cc(O)c(O)c(OC(=O)c2cc(O)c(O)c(O)c2)c1)c1cc(O)c(O)c(OC(=O)c2cc(O)c(O)c(O)c2)c1" .
196.8

Please report the recorded GLC for "COC(=O)C1=C(C)NC(C)=C(C(=O)OC)C1c1ccccc1[N+](=O)[O-]" .
167.8

---

- Organism: Rattus norvegicus
- measurement notes: Open TG-GATES - Regimen: Daily Repeat
- Assay type: toxicity, organism-based, Sprague-Dawley
- Set-up: regimen Daily Repeat, gender Male, age 6 weeks
- test settings: in vivo, po, 1000 mg/kg, […], tissue Blood, route gavage, dose level High, time 14 day
Would you mind telling me the reported MCH of each entry?
Field format: number, assumed pg, no unit text.

Please report the recorded MCH for O=C(OC[C@H]1O[C@@H](OC(=O)c2cc(O)c(O)c(OC(=O)c3cc(O)c(O)c(O)c3)c2)[C@H](OC(=O)c2cc(O)c(O)c(OC(=O)c3cc(O)c(O)c(O)c3)c2)[C@@H](OC(=O)c2cc(O)c(O)c(OC(=O)c3cc(O)c(O)c(O)c3)c2)[C@@H]1OC(=O)c1cc(O)c(O)c(OC(=O)c2cc(O)c(O)c(O)c2)c1)c1cc(O)c(O)c(OC(=O)c2cc(O)c(O)c(O)c2)c1 [TANNIC ACID] .
20.5

Please report the recorded MCH for CCOc1ccc(NC(C)=O)cc1 [PHENACETIN] .
25.1

Please report the recorded MCH for CN/C(=N/CCSCc1nc[nH]c1C)NC#N [CIMETIDINE] .
19.5

Please report the recorded MCH for CNC(=C[N+](=O)[O-])NCCSCc1ccc(CN(C)C)o1 [RANITIDINE] .
21.2

Please report the recorded MCH for Cc1nnc2n1-c1ccc(Cl)cc1C(c1ccccc1Cl)=NC2 [TRIAZOLAM] .
20

Please report the recorded MCH for COC(=O)C1=C(C)NC(C)=C(C(=O)OC)C1c1ccccc1[N+](=O)[O-] [NIFEDIPINE] .
20.6

---

- Species on record: Rattus norvegicus
- measurement notes: Open TG-GATES - Regimen: Single
- Assay type: toxicity, organism-based, Sprague-Dawley
- Parameters: regimen Single, gender Male, age 6 weeks
- test settings: in vivo, po, 100 mg/kg, 6 h, tissue Blood, route gavage, dose level Low
readout name: PT (s)
Field format: number, assumed s, no unit text.

Please report the recorded PT for "CNC(=C[N+](=O)[O-])NCCSCc1ccc(CN(C)C)o1" .
12.3

Please report the recorded PT for "O=C(OC[C@H]1O[C@@H](OC(=O)c2cc(O)c(O)c(OC(=O)c3cc(O)c(O)c(O)c3)c2)[C@H](OC(=O)c2cc(O)c(O)c(OC(=O)c3cc(O)c(O)c(O)c3)c2)[C@@H](OC(=O)c2cc(O)c(O)c(OC(=O)c3cc(O)c(O)c(O)c3)c2)[C@@H]1OC(=O)c1cc(O)c(O)c(OC(=O)c2cc(O)c(O)c(O)c2)c1)c1cc(O)c(O)c(OC(=O)c2cc(O)c(O)c(O)c2)c1" .
12

Please report the recorded PT for "Cc1nnc2n1-c1ccc(Cl)cc1C(c1ccccc1Cl)=NC2" .
13.4

Please report the recorded PT for "COC(=O)C1=C(C)NC(C)=C(C(=O)OC)C1c1ccccc1[N+](=O)[O-]" .
15

Please report the recorded PT for "CN/C(=N/CCSCc1nc[nH]c1C)NC#N" .
13.1

---

- Organism: Rattus norvegicus
- measurement notes: Open TG-GATES - Regimen: Daily Repeat
- Format: toxicity, organism-based, Sprague-Dawley
- Design: regimen Daily Repeat, gender Male, age 6 weeks
- test settings: in vivo, po, 300 mg/kg, […], tissue Kidney, route gavage, dose level Middle, time 14 day
readout name: KIDNEY_L

Please report the recorded KIDNEY_L for CCOc1ccc(NC(C)=O)cc1 [PHENACETIN] .
1.2 g

Please report the recorded KIDNEY_L for Cc1nnc2n1-c1ccc(Cl)cc1C(c1ccccc1Cl)=NC2 [TRIAZOLAM] .
1.2 g

Please report the recorded KIDNEY_L for O=C(OC[C@H]1O[C@@H](OC(=O)c2cc(O)c(O)c(OC(=O)c3cc(O)c(O)c(O)c3)c2)[C@H](OC(=O)c2cc(O)c(O)c(OC(=O)c3cc(O)c(O)c(O)c3)c2)[C@@H](OC(=O)c2cc(O)c(O)c(OC(=O)c3cc(O)c(O)c(O)c3)c2)[C@@H]1OC(=O)c1cc(O)c(O)c(OC(=O)c2cc(O)c(O)c(O)c2)c1)c1cc(O)c(O)c(OC(=O)c2cc(O)c(O)c(O)c2)c1 [TANNIC ACID] .
1.4 g

Please report the recorded KIDNEY_L for CN/C(=N/CCSCc1nc[nH]c1C)NC#N [CIMETIDINE] .
1.2 g

Please report the recorded KIDNEY_L for COC(=O)C1=C(C)NC(C)=C(C(=O)OC)C1c1ccccc1[N+](=O)[O-] [NIFEDIPINE] .
1.2 g

Please report the recorded KIDNEY_L for CNC(=C[N+](=O)[O-])NCCSCc1ccc(CN(C)C)o1 [RANITIDINE] .
1.2 g

---

- Species on record: Rattus norvegicus
- measurement notes: Open TG-GATES - Regimen: Daily Repeat
- Format: toxicity, organism-based, Sprague-Dawley
- Set-up: regimen Daily Repeat, gender Male, age 6 weeks
- test settings: in vivo, po, 300 mg/kg, […], tissue Plasma, route gavage, dose level Middle, time 14 day
Would you mind telling me the reported RALB of each entry?
Field format: number, assumed g/dL, no unit text.

Please report the recorded RALB for "CN/C(=N/CCSCc1nc[nH]c1C)NC#N" .
3.3

Please report the recorded RALB for "COC(=O)C1=C(C)NC(C)=C(C(=O)OC)C1c1ccccc1[N+](=O)[O-]" .
2.7

Please report the recorded RALB for "O=C(OC[C@H]1O[C@@H](OC(=O)c2cc(O)c(O)c(OC(=O)c3cc(O)c(O)c(O)c3)c2)[C@H](OC(=O)c2cc(O)c(O)c(OC(=O)c3cc(O)c(O)c(O)c3)c2)[C@@H](OC(=O)c2cc(O)c(O)c(OC(=O)c3cc(O)c(O)c(O)c3)c2)[C@@H]1OC(=O)c1cc(O)c(O)c(OC(=O)c2cc(O)c(O)c(O)c2)c1)c1cc(O)c(O)c(OC(=O)c2cc(O)c(O)c(O)c2)c1" .
3.8

Please report the recorded RALB for "CCOc1ccc(NC(C)=O)cc1" .
2.7

Please report the recorded RALB for "Cc1nnc2n1-c1ccc(Cl)cc1C(c1ccccc1Cl)=NC2" .
2.6

Please report the recorded RALB for "CNC(=C[N+](=O)[O-])NCCSCc1ccc(CN(C)C)o1" .
3.5

---

- Species: Rattus norvegicus
- measurement notes: Open TG-GATES - Regimen: Daily Repeat
- Assay type: toxicity, organism-based, Sprague-Dawley
- Parameters: regimen Daily Repeat, gender Male, age 6 weeks
- test settings: in vivo, po, 0 mg/kg, […], tissue Plasma, route gavage, dose level Control, time 7 day
readout name: TP

Please report the recorded TP for "Nc1c2c(nc3ccccc13)CCCC2" .
5.4 g/dL

Please report the recorded TP for "COC(=O)C1=C(C)NC(C)=C(C(=O)OC)C1c1ccccc1[N+](=O)[O-]" .
5.9 g/dL

Please report the recorded TP for "O=C(OC[C@H]1O[C@@H](OC(=O)c2cc(O)c(O)c(OC(=O)c3cc(O)c(O)c(O)c3)c2)[C@H](OC(=O)c2cc(O)c(O)c(OC(=O)c3cc(O)c(O)c(O)c3)c2)[C@@H](OC(=O)c2cc(O)c(O)c(OC(=O)c3cc(O)c(O)c(O)c3)c2)[C@@H]1OC(=O)c1cc(O)c(O)c(OC(=O)c2cc(O)c(O)c(O)c2)c1)c1cc(O)c(O)c(OC(=O)c2cc(O)c(O)c(O)c2)c1" .
5.7 g/dL

Please report the recorded TP for "CNC(=C[N+](=O)[O-])NCCSCc1ccc(CN(C)C)o1" .
5.7 g/dL

Please report the recorded TP for "CCOc1ccc(NC(C)=O)cc1" .
5.9 g/dL

Please report the recorded TP for "CC(C)NNC(=O)c1ccncc1" .
5.5 g/dL

Please report the recorded TP for NC1=NC(=O)C(c2ccccc2)O1 (configuration not stated) .
5.8 g/dL
